Structures can show the parent of a compound that is named as a salt.
melting point listing for selected compounds.

| COMPOUND | melting point / °C |
| --- | --- |
| COc1cc(OC)cc(N(CC2CC2)c2ccc3ncc(-c4ccc5c(ccn5C)c4)nc3c2)c1 (as salt: HCl) (hydrate or solvate) [Compound 20] | 105 |
| COc1cc(OC)cc(N(CC2CC2)c2ccc3ncc(-c4nnn(C)n4)nc3c2)c1 [Compound 82] | 143 |
| COc1cc(OC)cc(N(CC2CC2)c2ccc3ncc(-c4ccn(C)c4)nc3c2)c1 [Compound 73] | 110 |
| COc1cc(OC)cc(N(CC#Cc2ncccc2OC)c2ccc3ncc(-c4cccnc4)nc3c2)c1 [Compound 183] | 141 |
| COc1cc(OC)cc(N(CCCO)c2ccc3ncc(-c4cccnc4)nc3c2)c1 [Compound 112] | 150 |
| COc1cc(OC)cc(N(CCCNCC(F)(F)F)c2ccc3ncc(-c4ccnc(F)c4)nc3c2)c1 [Compound 144] | 128 |
| COc1cc(OC)cc(N(CCNC(C)C)c2ccc3ncc(C(=O)NCCCN4CCN(C)CC4)nc3c2)c1 (as salt: HCl) (hydrate or solvate) [Compound 159] | 176 |
| COc1cc(OC)cc(N(CCN2C(=O)c3ccccc3C2=O)c2ccc3ncc(-c4ccc(N)nc4)nc3c2)c1 [Compound 57] | 222 |
| COc1cc(OC)cc(N(CC2CC2)c2ccc3ncc(-c4cnn(C)n4)nc3c2)c1 [Compound 70] | 129 |
| COc1cc(OC)cc(N(CCNC(C)C)c2ccc3ncc(-c4ccn[nH]4)nc3c2)c1 (as salt: HCl) [Compound 189] | 145 |
| COc1cc(OC)cc(N(CCNC(C)C)c2ccc3ncc(C(=O)N4CCCCC4)nc3c2)c1 (as salt: HCl) (hydrate or solvate) [Compound 180] | 236 |
| COc1cc(OC)cc(N(CC2CC2)c2ccc3ncc(-c4cn(CCN5CCOCC5)nn4)nc3c2)c1 [Compound 24] | 128 |
| COc1cc(OC)cc(N(CCNC(C)C)c2ccc3ncc(-c4ccc(N5CCOCC5)nc4)nc3c2)c1 [Compound 168] | 135 |
| COc1cc(OC)cc(N(CCN2CCOCC2)c2ccc3ncc(-c4ccc(NC(=O)N5CCOCC5)nc4)nc3c2)c1 [Compound 35] | 153 |
| COc1cc(OC)cc(N(CC2CC2)c2ccc3ncc(-c4ccn(CCO)c4)nc3c2)c1 [Compound 56] | 143 |

====

# reported melting point; entries follow
Structures can show the parent of a compound that is named as a salt.

| COMPOUND | melting point [°C] |
| --- | --- |
| CNC(=O)c1cc(-c2cnc3ccc(N(CCN4CCCC4CO)c4cc(OC)cc(OC)c4)cc3n2)ccn1 (stereo not shown) | 172 |
| COc1cc(OC)cc(N(CC2CC2)c2ccc3ncc(-c4ccc(N)nc4)nc3c2)c1 | 185 |
| COc1cc(OC)cc(N(CCNC(C)C)c2ccc3ncc(C(=O)NCCN4CCOCC4)nc3c2)c1 (as salt: HCl) (hydrate or solvate) | 149 |
| COc1cc(OC)cc(N(CCNC(C)C)c2ccc3ncc(-c4cccnc4)nc3c2)c1 (as salt: HCl) (hydrate or solvate) | 174 |
| COCC(CN(c1cc(OC)cc(OC)c1)c1ccc2ncc(-c3cccnc3)nc2c1)OC(C)=O (single isomer, unassigned) (as salt: HCl) (hydrate or solvate) | 80 |
| COc1cc(OC)cc(N(CCO)c2ccc3ncc(-c4ccnc(C(=O)NCCCN)c4)nc3c2)c1 | 103 |
| COc1cc(OC)cc(N(CC2CC2)c2ccc3ncc(-c4nccn4C)nc3c2)c1 | 175 |

====

BAF3-FLT3 (MIN IL3) 96 well pIC50 values by entry
- SYSTEM NAME: Ba/F3-Flt3-transfected cells (Homo sapiens, UniProt P36888, cells depend on it, form not given)
- Sequence (P36888 1-993): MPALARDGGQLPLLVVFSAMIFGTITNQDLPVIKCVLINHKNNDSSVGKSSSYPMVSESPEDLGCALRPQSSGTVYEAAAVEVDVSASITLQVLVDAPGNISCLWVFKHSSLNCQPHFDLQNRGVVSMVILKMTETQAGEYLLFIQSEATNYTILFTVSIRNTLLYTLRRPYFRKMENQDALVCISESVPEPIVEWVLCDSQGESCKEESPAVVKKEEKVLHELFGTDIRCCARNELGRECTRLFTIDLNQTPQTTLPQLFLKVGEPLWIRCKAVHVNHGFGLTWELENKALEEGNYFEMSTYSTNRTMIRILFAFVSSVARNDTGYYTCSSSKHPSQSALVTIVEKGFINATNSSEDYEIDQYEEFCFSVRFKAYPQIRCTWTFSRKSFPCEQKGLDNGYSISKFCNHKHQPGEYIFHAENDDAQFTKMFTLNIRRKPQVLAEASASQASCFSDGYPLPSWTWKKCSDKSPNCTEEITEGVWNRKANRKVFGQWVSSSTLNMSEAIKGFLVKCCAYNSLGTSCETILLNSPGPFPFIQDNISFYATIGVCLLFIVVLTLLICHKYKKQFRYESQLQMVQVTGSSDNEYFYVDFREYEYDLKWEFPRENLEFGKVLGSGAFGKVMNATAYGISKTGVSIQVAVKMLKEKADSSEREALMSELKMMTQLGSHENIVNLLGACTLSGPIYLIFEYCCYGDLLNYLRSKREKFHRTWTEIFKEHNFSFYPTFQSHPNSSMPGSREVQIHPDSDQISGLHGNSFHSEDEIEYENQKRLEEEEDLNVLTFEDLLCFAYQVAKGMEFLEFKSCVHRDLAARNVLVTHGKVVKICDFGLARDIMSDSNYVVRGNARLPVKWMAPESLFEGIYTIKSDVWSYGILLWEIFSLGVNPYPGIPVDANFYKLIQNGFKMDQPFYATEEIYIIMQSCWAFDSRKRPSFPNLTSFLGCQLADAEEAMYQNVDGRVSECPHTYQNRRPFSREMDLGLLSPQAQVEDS
- METHOD DESCRIPTION: Ba/F3-Flt3 (minus IL3) cellular proliferation assay, Alamar Blue
- Type: cell-based
- ASSAY SETUP: minus IL3

| SAMPLE SMILES | BAF3-FLT3 (MIN IL3) 96 well pIC50 |
| --- | --- |
| COc1cc(OC)cc(N(CC2CC2)c2ccc3ncc(-c4cn(CCO)nn4)nc3c2)c1 | <5 |
| COc1cc(OC)cc(N(CC2CC2)c2ccc3ncc(-c4cccn4C)nc3c2)c1 | 5.17 |
| COc1cc(OC)cc(N(CC2CC2)c2ccc3ncc(-n4cnc(C)c4)nc3c2)c1 | 5.06 |
| COc1cc(OC)cc(N(CC2CC2)c2ccc3ncc(-c4nnn[nH]4)nc3c2)c1 | <5 |

====

- SYSTEM NAME: FGFR3 (h) (Homo sapiens)
- Sequence (P22607 23-806): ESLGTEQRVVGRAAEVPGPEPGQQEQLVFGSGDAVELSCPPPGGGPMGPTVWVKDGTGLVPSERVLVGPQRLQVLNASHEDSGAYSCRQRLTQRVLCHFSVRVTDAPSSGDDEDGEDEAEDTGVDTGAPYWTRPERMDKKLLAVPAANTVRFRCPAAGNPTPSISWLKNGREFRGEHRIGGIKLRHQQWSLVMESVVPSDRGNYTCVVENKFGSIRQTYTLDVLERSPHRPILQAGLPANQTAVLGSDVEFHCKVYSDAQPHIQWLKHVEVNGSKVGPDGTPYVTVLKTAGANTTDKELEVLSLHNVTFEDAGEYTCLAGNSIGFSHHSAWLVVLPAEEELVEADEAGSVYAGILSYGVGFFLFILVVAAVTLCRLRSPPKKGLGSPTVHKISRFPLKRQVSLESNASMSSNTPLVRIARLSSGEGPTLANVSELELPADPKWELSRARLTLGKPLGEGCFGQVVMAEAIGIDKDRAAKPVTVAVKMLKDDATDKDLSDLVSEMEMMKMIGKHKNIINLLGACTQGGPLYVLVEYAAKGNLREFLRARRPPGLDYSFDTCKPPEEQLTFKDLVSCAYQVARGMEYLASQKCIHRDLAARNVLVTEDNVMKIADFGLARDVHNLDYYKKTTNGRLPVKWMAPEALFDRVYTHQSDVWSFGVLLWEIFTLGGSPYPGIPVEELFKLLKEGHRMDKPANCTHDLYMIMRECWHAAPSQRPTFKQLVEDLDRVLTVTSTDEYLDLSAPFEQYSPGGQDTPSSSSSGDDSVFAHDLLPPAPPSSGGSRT
- METHOD DESCRIPTION: FGFR3 (enzymatic assay), TR-FRET
- Assay type: biochemical
- ASSAY SETUP: read-out: FGFR 3 pIC50 (converted)

| SAMPLE SMILES | READOUT UNIT | IC50 |
| --- | --- | --- |
| CNC(=O)c1cc(-c2cnc3ccc(N(CCNCC(F)(F)F)c4cc(OC)cc(OC)c4)cc3n2)ccn1 | nM | 33.9 |
| COc1cc(OC)cc(N(CCNC(C)C)c2ccc3ncc(-c4ccnc(C(=O)NCCCN)c4)nc3c2)c1 | nM | 12.3 |
| COc1cc(OC)cc(N(CC2CC2)c2ccc3ncc(-n4ccnc4C)nc3c2)c1 | nM | 479 |
| COc1cc(OC)cc(N(CC2CC2)c2ccc3ncc(-c4cn[nH]n4)nc3c2)c1 | nM | 61.7 |
| COc1cc(OC)cc(N(CCNC(C)C)c2ccc3ncc(-c4ccncc4)nc3c2)c1 | nM | 4.47 |
| COc1cc(OC)cc(N(CCO)c2ccc3ncc(-c4ccc(N5CCN(C(=O)OC(C)(C)C)CC5)cc4)nc3c2)c1 | nM | 24 |
| COc1cc(OC)cc(N(CCCO)c2ccc3ncc(-c4ccnc(C(=O)N5CCOCC5)c4)nc3c2)c1 | nM | 3.8 |
| COc1cc(OC)cc(N(CCCO)c2ccc3ncc(-c4ccnc(C(=O)NCCCN)c4)nc3c2)c1 | nM | 19.1 |
| COc1cc(OC)cc(N(CCCO)c2ccc3ncc(-c4cnc(N5CCN(C)CC5)c(C)c4)nc3c2)c1 | nM | 2.45 |
| COc1cc(OC)cc(N(CCCNCC(F)(F)F)c2ccc3ncc(-c4ccn(C)c4)nc3c2)c1 | nM | 9.55 |
| COc1cc(OC)cc(N(CCNC(C)C)c2ccc3ncc(-c4ccn(C)c4)nc3c2)c1 | nM | 2.34 |
| COc1cc(OC)cc(N(CC2CC2)c2ccc3ncc(-c4cnco4)nc3c2)c1 | nM | 30.9 |
| COc1cc(OC)cc(N(CCCNCC(=O)O)c2ccc3ncc(-c4ccnc(C(=O)NCCCCN)c4)nc3c2)c1 | nM | 11.2 |
| COc1cc(OC)cc(N(CC2CC2)c2ccc3ncc(-c4cn(CCN5CCOCC5)nn4)nc3c2)c1 | nM | 9.55 |
